Assay: Inhibition of Trypanosoma brucei brucei inosine-adenosine-guanosine nucleoside hydrolase (IAG-NH)
measure: Ki
Your answer should be a number followed by the unit of measure.

// query Ki value for entry OC[C@@H]1[C@@H](O)[C@@H](O)CN1Cc1c[nH]c2c(O)ncnc12
30 nM

// next record Nc1ncnc2c(C3N[C@H](CO)[C@@H](O)[C@H]3O)c[nH]c12 (stereo partly drawn) [IMMUCILLIN A]
0.9 nM

// next record O=c1[nH]cnc2c(CN3C[C@H](O)[C@H](O)[C@H]3CO)csc12
190 nM

// next record Nc1ncnc2c(CN3C[C@H](O)[C@H](O)[C@H]3CO)c[nH]c12
18 nM

// next record O=c1[nH]cnc2c([C@@H]3N[C@H](CO)[C@@H](O)[C@H]3O)c[nH]c12 [FORODESINE]
24 nM

// next record OC[C@@H]1[C@@H](O)[C@@H](O)CN1Cc1cccc2cccnc12
446 nM

// next record Nc1ncnc2c(CN3C[C@H](O)[C@H](O)[C@H]3CO)csc12
56 nM

// next record Nc1nc2c(CN3C[C@H](O)[C@H](O)[C@H]3CO)cccc2s1
560 nM

====

Test system: Trypanosoma brucei brucei
Test: Antitrypanosomal activity against suramin sensitive Trypanosoma brucei brucei Lister 427 assessed as reduction in parasite growth after 3 days by fluorometrically
Format: functional, organism-based
Conditions: Lister 427, 72 h
pIC50: −log10 of the molar value.
measure: pIC50

// query pIC50 value for entry N=C(N)NCCN1C[C@H](O)[C@H](O)[C@H]1CO
< 4.19

// next record Nc1ncnc2c(CN3C[C@H](O)[C@H](O)[C@H]3CO)cccc12
< 4.19

// next record Cn1nnc2cc(CN3C[C@H](O)[C@H](O)[C@H]3CO)ccc21
< 4.19

// next record COc1ccc(CN2C[C@H](O)[C@H](O)[C@H]2CO)cn1
< 4.19

// next record OC[C@@H]1[C@@H](O)[C@@H](O)CN1Cc1c[nH]c2ccccc12
< 4.19

// next record O=c1[nH]cnc2c([C@@H]3N[C@H](CO)[C@@H](O)[C@H]3O)c[nH]c12 [FORODESINE]
< 4.19

// next record Nc1ncnc2c(CN3C[C@H](O)[C@H](O)[C@H]3CO)c[nH]c12
6.31

// next record OC[C@@H]1[C@@H](O)[C@@H](O)CN1CCc1c[nH]c2ccccc12
4.51

// next record OC[C@@H]1[C@@H](O)[C@@H](O)CN1Cc1cccc2cccnc12
< 4.19

// next record COc1ccnc2c(CN3C[C@H](O)[C@H](O)[C@H]3CO)cccc12
< 4.19

// next record Cc1nn(-c2ccccc2)nc1CN1C[C@H](O)[C@H](O)[C@H]1CO
< 4.19

// next record OC[C@@H]1[C@@H](O)[C@@H](O)CN1Cc1ccc(-n2cccc2)cc1
4.42

// next record OC[C@@H]1[C@@H](O)[C@@H](O)CN1Cc1cnc2ccccc2c1
< 4.19

====

Task for the reader: assign each of the following compounds its reported pKi.
Experiment: Inhibition of Trypanosoma vivax Inosine-adenosine-guanosine-nucleoside hydrolase
Keep it numeric: pKi is minus log10 of the concentration in mol/L.

// query pKi value for entry COc1ccc(CN2C[C@H](O)[C@H](O)[C@H]2CO)cn1
4.49

// next record Cc1cc(Cl)c2cccc(CN3C[C@H](O)[C@H](O)[C@H]3CO)c2n1
6.43

// next record N#Cc1ccc(CN2C[C@H](O)[C@H](O)[C@H]2CO)cc1
4.59

// next record OC[C@@H]1[C@@H](O)[C@@H](O)CN1Cc1ccc2ccccc2n1
6.74

// next record O=[N+]([O-])c1ccc(CN2C[C@H](O)[C@H](O)[C@H]2CO)cc1
5.12

// next record Nc1ncccc1CN1C[C@H](O)[C@H](O)[C@H]1CO
3.92

// next record Nc1ncnc2c(CN3C[C@H](O)[C@H](O)[C@H]3CO)cccc12
7.82

// next record OC[C@@H]1[C@@H](O)[C@@H](O)CN1Cc1cccc2cccnc12
7.96

// next record OC[C@@H]1[C@@H](O)[C@@H](O)CN1Cc1cccc2ccc(Cl)nc12
6.51

// next record O=c1[nH]cnc2c(CN3C[C@H](O)[C@H](O)[C@H]3CO)cccc12
6.96

// next record N=C(N)NCCCN1C[C@H](O)[C@H](O)[C@H]1CO
4.40

// next record N=C(N)NCCN1C[C@H](O)[C@H](O)[C@H]1CO
3.54

// next record Nc1ccnc2c(CN3C[C@H](O)[C@H](O)[C@H]3CO)cccc12
7.30
